The measurements presented in this section are drawn from patent US20230357429A1.

This section presents binders with their documented pEC50 values.
- Tested system: T1, Peptide-8 (cysteine pairing not given here; also: biotinylated, site not given here)
- T1 peptide: VDFCGLYHWPICYQ
- Experimental protocol: ELISA, Fab on captured biotin-peptide
pEC50: −log10 of the molar value. Where no end group is shown, it is not given here.
Assay endpoint: pEC50

binder="TBD-1 wt (Fab, V domains shown, Fab; the heavy chain entry is VH-CH1; also called wild-type anti-TROP2 Fab (hRS7); TROP2 Fab) VH: QVQLQQSGSELKKPGASVKVSCKASGYTFTNYGMNWVKQAPGQGLKWMGWINTYTGEPTYTDDFKGRFAFSLDTSVSTAYLQISSLKADDTAVYFCARGGFGSSYWYFDVWGQGSLVTVSS VL: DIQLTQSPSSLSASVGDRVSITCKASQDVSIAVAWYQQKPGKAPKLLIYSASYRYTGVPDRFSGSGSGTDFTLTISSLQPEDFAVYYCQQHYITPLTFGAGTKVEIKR" result_value=7.40
binder="TBD-17 (HC S104A) (Fab, V domains shown, Fab; also called HC S104A mutant) VH: QVQLQQSGSELKKPGASVKVSCKASGYTFTNYGMNWVKQAPGQGLKWMGWINTYTGEPTYTDDFKGRFAFSLDTSVSTAYLQISSLKADDTAVYFCARGGFGSAYWYFDVWGQGSLVTVSS VL: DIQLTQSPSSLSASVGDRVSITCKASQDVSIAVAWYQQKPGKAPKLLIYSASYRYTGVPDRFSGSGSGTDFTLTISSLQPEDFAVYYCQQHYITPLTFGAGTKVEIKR" result_value=8.09
binder="TBD-21 (HC F108A) (Fab, V domains shown, Fab; also called HC F108A mutant) VH: QVQLQQSGSELKKPGASVKVSCKASGYTFTNYGMNWVKQAPGQGLKWMGWINTYTGEPTYTDDFKGRFAFSLDTSVSTAYLQISSLKADDTAVYFCARGGFGSSYWYADVWGQGSLVTVSS VL: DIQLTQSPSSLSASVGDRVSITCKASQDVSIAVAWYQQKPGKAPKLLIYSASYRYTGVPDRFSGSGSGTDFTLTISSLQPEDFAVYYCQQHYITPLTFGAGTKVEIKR" result_value=7.89
